- Test system: HCT-15 colon
- ASSAY_TEXT: NCI tumour cell line growth inhibition, 48 h
OBSERVATION_TYPE: TGI

Some compounds with known TGI results, for comparison:
O=C(NCCc1ccccc1)C(c1ccccc1)(c1ccccc1)c1ccccc1 = > 100 µM
CC(C)CC1C(=O)N2CCC[C@H]2C2(O)O[C@](NC(=O)C3C=C4c5cccc6[nH]c(Br)c(c56)C[C@H]4N(C)C3)(C(C)C)C(=O)N12 (stereo partly specified) = > 100 µM
COc1cc2c3c(c4ccc(OC)c(OC)c4c2cc1OC)CN1CCC[C@@H]1C3 = 11.4 µM
CCOC(=O)C1(C#N)C(c2ccccc2)CC(O)(c2ccc([N+](=O)[O-])cc2)C(C(=O)c2ccc([N+](=O)[O-])cc2)C1c1ccccc1 (stereo unspecified) = > 100 µM
Cc1cc(=O)oc2cc(SC(=O)N(C)C)ccc12 = > 100 µM
O=Nc1ccc(O)c2ccccc12 = 4.98 µM
C1=Nc2ccc(cc2)N=Cc2ccccc2OCc2cccc(n2)COc2ccccc21 = > 100 µM
Cc1ccc2c3c(cnc2n1)C(=O)OCCN3C = > 100 µM

Sample COc1ccccc1-c1cc(/C=C2\C(=O)Nc3ncc(Br)cc32)cc(Br)c1O , system: HCT-15 colon. Its TGI is > 25 µM

Sample CS/C(C#N)=C(\C#N)SC , system: HCT-15 colon. Its TGI is 5.95 µM

Sample CC1=CC(=O)CC(C)(C)C1(O)/C=C/C(C)=C/C(=O)O (stereo unspecified) , system: HCT-15 colon. Its TGI is > 100 µM

Sample COc1ccc(/C=N/N=C(\N)NO)c(Cl)c1O , system: HCT-15 colon. Its TGI is > 100 µM

Sample Nc1nc(Cl)cc(NCCCCCNc2cc(Cl)nc(N)n2)n1 , system: HCT-15 colon. Its TGI is > 100 µM

The reported numbers originate from PubChem BioAssay (NCI).
